Test system: SK-MEL-28 melanoma
experiment.summary: NCI tumour cell line growth inhibition, 48 h

>  <molecule>
CNC(=S)NNC(=O)c1c(C)nc2sccn12

>  <TGI>
> 100 µM

$$$$
>  <molecule>
Oc1c(Cl)cc(C(c2cc(Cl)c(O)c(Cl)c2)C(c2cc(Cl)c(O)c(Cl)c2)c2cc(Cl)c(O)c(Cl)c2)cc1Cl

>  <TGI>
54.3 µM

$$$$
>  <molecule>
CCOC(=O)N/N=C/C1=NN(C(=O)OCC)S(=O)C1C (centres undefined)

>  <TGI>
> 100 µM

$$$$
>  <molecule>
O=C(COC(c1ccc(F)cc1)c1ccc(F)cc1)N1CCN(CCCc2ccccc2)CC1

>  <TGI>
> 100 µM

$$$$
>  <molecule>
CCC1(O)C(=O)OCc2c1cc1n(c2=O)Cc2c-1nc1ccccc1c2OC (centres undefined)

>  <TGI>
> 53.8 µM

$$$$
>  <molecule>
CC(C)(C)OC(=O)N1C[C@H](CC(=O)OCc2ccccc2)C[C@H]1C(=O)OCC(Cl)(Cl)Cl

>  <TGI>
> 50 µM

$$$$
>  <molecule>
COc1cccc(/C=N/[N-]C(N)=O)c1[O-].[Cu+2].[OH3+].c1cnc2c(c1)ccc1cccnc12

>  <TGI>
29.7 µM

$$$$
>  <molecule>
CC1=NN(c2cccc(Cl)c2)C(=N/c2nc3ccccc3s2)/C1=C\C=C\c1ccccc1

>  <TGI>
> 100 µM

$$$$
>  <molecule>
COC(OC)C1(c2ccccc2)Oc2ccccc2C1=O (centres undefined)

>  <TGI>
> 100 µM

$$$$
>  <molecule>
NC(=O)ON=C1CCN(Cc2ccccc2)CC1

>  <TGI>
> 100 µM

$$$$
>  <molecule>
COC(=N)C(C)C

>  <TGI>
> 100 µM

$$$$
>  <molecule>
Nc1sccc1S(=O)(=O)c1ccsc1N

>  <TGI>
> 100 µM

$$$$
>  <molecule>
C[CH2][Sn]1([CH2]C)[O]C2C(O)OC(CO)C(O)C2[O]1 (centres undefined)

>  <TGI>
80.4 µM

$$$$
>  <molecule>
NCCCCN

>  <TGI>
> 100 µM

$$$$

---

Test system: KM12 colon
experiment.summary: NCI tumour cell line growth inhibition, 48 h
observable: TGI

>  <compound>
Nc1nc(N)nc(-c2cnc3ccccc3c2)n1

>  <readout.value>
> 100 µM

$$$$
>  <compound>
CC(C)Cc1ccc(C(C)/C=C2\CCC(CN3CCOCC3)C2=O)cc1 (configuration not stated)

>  <readout.value>
16.9 µM

$$$$
>  <compound>
C=CCOC1=C2CC[C@H](O)[C@@]2(C)CCC1=O

>  <readout.value>
> 100 µM

$$$$
>  <compound>
COc1cc(/C=C2/C[C@H]3[C@@H]4CCC5=CC(=O)CC[C@]5(C)[C@H]4CC[C@]3(C)NC2=O)cc(OC)c1OC

>  <readout.value>
> 100 µM

$$$$
>  <compound>
O=C(Nc1cccnc1)c1cccs1

>  <readout.value>
> 100 µM

$$$$
>  <compound>
CCC[CH2][Sn]([CH2]CCC)([O]C(=O)c1cc(OC)c(OC)c(OC)c1)[O]C(=O)c1cc(OC)c(OC)c(OC)c1

>  <readout.value>
3.01 µM

$$$$
>  <compound>
NC(Cc1cc(Br)c(O)c(Br)c1)C(=O)O (configuration not stated)

>  <readout.value>
> 100 µM

$$$$
>  <compound>
C/C(=N/NC(=S)N1CCCCCC1)c1ccccc1O

>  <readout.value>
> 53.7 µM

$$$$
>  <compound>
O=C(c1ccc(F)c(F)c1Nc1ccc(I)cc1F)N1CC(O)([C@H]2CCCCN2)C1

>  <readout.value>
14 µM

$$$$
>  <compound>
Brc1ccc(-c2ccc(-c3ccc(-c4ccc(Br)s4)s3)s2)s1

>  <readout.value>
> 100 µM

$$$$
>  <compound>
Cc1cc(C)c2c(=O)n(CN3CCN(c4ccccc4)CC3)sc2n1

>  <readout.value>
> 100 µM

$$$$
>  <compound>
N#Cc1ccc(Nc2cnc3cc(N)ccc3n2)cc1

>  <readout.value>
> 100 µM

$$$$
>  <compound>
CCC(C#N)N(Cc1ccc(CN(C(=O)c2ccccc2)C(C#N)CC)cc1)C(=O)c1ccccc1 (configuration not stated)

>  <readout.value>
67.7 µM

$$$$
>  <compound>
CC(=O)Oc1ccn2nc(C)c(Cc3c(C)nn4ccc(OC(C)=O)cc34)c2c1

>  <readout.value>
> 100 µM

$$$$
>  <compound>
O=S1c2ccccc2N=C(c2ccc3ccccc3c2)CC1c1ccccc1 (configuration not stated)

>  <readout.value>
28.8 µM

$$$$
>  <compound>
CNC(=S)NNC1=NCCCN1

>  <readout.value>
> 100 µM

$$$$
>  <compound>
O=S1(=O)COc2ccccc2-c2ncncc21

>  <readout.value>
> 100 µM

$$$$
>  <compound>
Nc1ccc(-c2nc3cc(F)ccc3s2)cc1Br

>  <readout.value>
> 100 µM

$$$$
>  <compound>
CCS(=O)(=O)c1ccc(OC)c(Nc2ncc(-c3cccc(-c4ccccc4F)c3)o2)c1

>  <readout.value>
> 25 µM

$$$$
>  <compound>
Nc1nn(C(=O)Nc2ccc(Cc3ccccc3)cc2)c2ccc(Cl)cc12

>  <readout.value>
> 100 µM

$$$$
>  <compound>
CC(=O)O[C@@]12[C@@H]3O[C@@]4(O)C[C@]5(C)[C@H]6C[C@@](C(C)C)(O[C@H]5c5ccoc5)O[C@H]1[C@]6(C4)O[C@]2(O)C(C)=CC3(C)C

>  <readout.value>
> 100 µM

$$$$
>  <compound>
CCOC(=O)c1c(N2CCOCC2)[nH]c(=O)c(C(c2c(O)c(C(=O)OCC)c(N3CCOCC3)[nH]c2=O)C(C)C)c1O

>  <readout.value>
> 100 µM

$$$$
